# ASSAY_TARGET: CYP3A4 (Homo sapiens)
# Sequence (P08684 whole entry): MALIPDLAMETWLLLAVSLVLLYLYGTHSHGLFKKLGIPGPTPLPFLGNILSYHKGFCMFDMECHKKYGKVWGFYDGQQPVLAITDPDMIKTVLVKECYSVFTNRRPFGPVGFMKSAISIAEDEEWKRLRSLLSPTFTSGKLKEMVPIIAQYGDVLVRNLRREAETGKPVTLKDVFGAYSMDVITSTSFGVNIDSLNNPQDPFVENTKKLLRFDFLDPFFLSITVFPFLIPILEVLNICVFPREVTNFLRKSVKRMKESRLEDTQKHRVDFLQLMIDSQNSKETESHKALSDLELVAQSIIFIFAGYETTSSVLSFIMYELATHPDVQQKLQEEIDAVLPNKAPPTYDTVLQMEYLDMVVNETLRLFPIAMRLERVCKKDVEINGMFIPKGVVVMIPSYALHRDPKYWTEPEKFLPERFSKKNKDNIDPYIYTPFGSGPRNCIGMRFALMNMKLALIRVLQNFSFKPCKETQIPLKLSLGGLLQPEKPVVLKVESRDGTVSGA
# ASSAY_NOTES: Inhibition of human recombinant CYP3A4 at 10 uM by fluorimetry relative to control
# Type: ADME
QUANTITY_NAME: inhibition at 10 µM (%)
Report only the number, with the unit % understood.

Look up and report measured inhibition at 10 µM for this entry: `O=C(Nc1ccc(CN2CCN(c3ccccc3)CC2)cc1)c1n[nH]c2ccccc12`
48

----------
# ASSAY_TARGET: High affinity nerve growth factor receptor (Homo sapiens, UniProt P04629)
# Sequence (P04629 whole entry): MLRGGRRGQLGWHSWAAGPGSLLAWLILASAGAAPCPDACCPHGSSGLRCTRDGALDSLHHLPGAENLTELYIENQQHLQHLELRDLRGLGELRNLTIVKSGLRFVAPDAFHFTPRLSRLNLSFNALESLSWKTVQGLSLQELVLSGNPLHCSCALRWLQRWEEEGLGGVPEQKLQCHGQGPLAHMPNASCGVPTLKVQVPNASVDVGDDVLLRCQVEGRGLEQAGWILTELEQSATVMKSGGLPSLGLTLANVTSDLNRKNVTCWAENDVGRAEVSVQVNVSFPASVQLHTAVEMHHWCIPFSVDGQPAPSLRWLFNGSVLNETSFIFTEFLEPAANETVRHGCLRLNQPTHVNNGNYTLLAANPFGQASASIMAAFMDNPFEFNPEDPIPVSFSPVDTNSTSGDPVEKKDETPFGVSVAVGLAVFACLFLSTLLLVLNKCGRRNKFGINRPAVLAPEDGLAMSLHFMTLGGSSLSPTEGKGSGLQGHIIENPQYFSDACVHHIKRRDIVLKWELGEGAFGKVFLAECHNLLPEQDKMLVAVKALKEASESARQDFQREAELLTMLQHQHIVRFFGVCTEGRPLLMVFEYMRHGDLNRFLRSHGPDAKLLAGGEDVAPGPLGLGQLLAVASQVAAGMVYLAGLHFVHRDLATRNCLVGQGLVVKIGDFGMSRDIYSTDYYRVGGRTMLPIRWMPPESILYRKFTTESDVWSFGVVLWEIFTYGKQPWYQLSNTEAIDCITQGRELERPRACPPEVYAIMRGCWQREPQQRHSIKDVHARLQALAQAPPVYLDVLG
QUANTITY_NAME: IC50 (nM)
Report only the number, with the unit nM understood.

Look up and report measured IC50 for this entry: `O=C(Nc1ccc(CN2CCN(c3ccccc3)CC2)cc1)c1n[nH]c2ccccc12`
137

----------
# ASSAY_NOTES: Aqueous solubility in pH 7.4 PBS buffer at 200 uM after 24 hrs by UV-visible HPLC based shake flask method
# Format: physicochemical
# APPLIED_CONDITIONS: PBS buffer pH 7.4, pH 7.4
QUANTITY_NAME: solubility thermodynamic at 24 h, 200 µM (µM)
Report only the number, with the unit µM understood.

Look up and report measured solubility thermodynamic at 24 h, 200 µM for this entry: `O=C(Nc1ccc(CN2CCN(c3ccccc3)CC2)cc1)c1n[nH]c2ccccc12`
3

----------
# ASSAY_TARGET: Receptor-type tyrosine-protein kinase FLT3 (Homo sapiens)
# ASSAY_NOTES: Inhibition of human N-terminal GST-tagged FLT3 cytoplasmic domain (564 to 993 residues) expressed in baculovirus expression system using 5-FAM-peptide 2 as substrate after 2 hrs by electrophoretic mobility shift assay in presence of ATP
pIC50: −log10 of the molar value.
QUANTITY_NAME: pIC50

Consider the molecule `COC(=O)c1cccc(NC(=O)c2n[nH]c3ccccc23)c1` tested on Receptor-type tyrosine-protein kinase FLT3 (Homo sapiens); state its pIC50.
< 5.70

Consider the molecule `O=C(Nc1ccc(C(=O)N2CCN(c3ccccc3)CC2)cc1)c1n[nH]c2ccccc12` tested on Receptor-type tyrosine-protein kinase FLT3 (Homo sapiens); state its pIC50.
7.47

Consider the molecule `O=C(Nc1ccc(CN2CCN(c3ccccc3)CC2)cc1)c1n[nH]c2ccccc12` tested on Receptor-type tyrosine-protein kinase FLT3 (Homo sapiens); state its pIC50.
8.00

Consider the molecule `O=C(Nc1ccccc1)c1c[nH]c2ccccc12` tested on Receptor-type tyrosine-protein kinase FLT3 (Homo sapiens); state its pIC50.
< 5.70

Consider the molecule `Cc1ccccc1NC(=O)c1n[nH]c2ccccc12` tested on Receptor-type tyrosine-protein kinase FLT3 (Homo sapiens); state its pIC50.
< 5.70

Consider the molecule `COc1ccc(NC(=O)c2n[nH]c3ccccc23)cc1` tested on Receptor-type tyrosine-protein kinase FLT3 (Homo sapiens); state its pIC50.
6.45

Consider the molecule `CN(C(=O)c1n[nH]c2ccccc12)c1ccccc1` tested on Receptor-type tyrosine-protein kinase FLT3 (Homo sapiens); state its pIC50.
< 5.70

Consider the molecule `O=C(Nc1ccc(N2CCN(c3ccccc3)CC2)cc1)c1n[nH]c2ccccc12` tested on Receptor-type tyrosine-protein kinase FLT3 (Homo sapiens); state its pIC50.
< 5.70

Consider the molecule `COc1ccccc1NC(=O)c1n[nH]c2ccccc12` tested on Receptor-type tyrosine-protein kinase FLT3 (Homo sapiens); state its pIC50.
< 5.70

Consider the molecule `COC(=O)c1ccccc1NC(=O)c1n[nH]c2ccccc12` tested on Receptor-type tyrosine-protein kinase FLT3 (Homo sapiens); state its pIC50.
< 5.70

Consider the molecule `Cn1nc(C(=O)Nc2ccccc2)c2ccccc21` tested on Receptor-type tyrosine-protein kinase FLT3 (Homo sapiens); state its pIC50.
< 5.70

Consider the molecule `O=C(Nc1ccccc1)c1n[nH]c2ccccc12` tested on Receptor-type tyrosine-protein kinase FLT3 (Homo sapiens); state its pIC50.
6.38

----------
# ASSAY_TARGET: Mitogen-activated protein kinase kinase kinase kinase 4 (Homo sapiens)
# Sequence (O95819 whole entry, the tested form may be a part): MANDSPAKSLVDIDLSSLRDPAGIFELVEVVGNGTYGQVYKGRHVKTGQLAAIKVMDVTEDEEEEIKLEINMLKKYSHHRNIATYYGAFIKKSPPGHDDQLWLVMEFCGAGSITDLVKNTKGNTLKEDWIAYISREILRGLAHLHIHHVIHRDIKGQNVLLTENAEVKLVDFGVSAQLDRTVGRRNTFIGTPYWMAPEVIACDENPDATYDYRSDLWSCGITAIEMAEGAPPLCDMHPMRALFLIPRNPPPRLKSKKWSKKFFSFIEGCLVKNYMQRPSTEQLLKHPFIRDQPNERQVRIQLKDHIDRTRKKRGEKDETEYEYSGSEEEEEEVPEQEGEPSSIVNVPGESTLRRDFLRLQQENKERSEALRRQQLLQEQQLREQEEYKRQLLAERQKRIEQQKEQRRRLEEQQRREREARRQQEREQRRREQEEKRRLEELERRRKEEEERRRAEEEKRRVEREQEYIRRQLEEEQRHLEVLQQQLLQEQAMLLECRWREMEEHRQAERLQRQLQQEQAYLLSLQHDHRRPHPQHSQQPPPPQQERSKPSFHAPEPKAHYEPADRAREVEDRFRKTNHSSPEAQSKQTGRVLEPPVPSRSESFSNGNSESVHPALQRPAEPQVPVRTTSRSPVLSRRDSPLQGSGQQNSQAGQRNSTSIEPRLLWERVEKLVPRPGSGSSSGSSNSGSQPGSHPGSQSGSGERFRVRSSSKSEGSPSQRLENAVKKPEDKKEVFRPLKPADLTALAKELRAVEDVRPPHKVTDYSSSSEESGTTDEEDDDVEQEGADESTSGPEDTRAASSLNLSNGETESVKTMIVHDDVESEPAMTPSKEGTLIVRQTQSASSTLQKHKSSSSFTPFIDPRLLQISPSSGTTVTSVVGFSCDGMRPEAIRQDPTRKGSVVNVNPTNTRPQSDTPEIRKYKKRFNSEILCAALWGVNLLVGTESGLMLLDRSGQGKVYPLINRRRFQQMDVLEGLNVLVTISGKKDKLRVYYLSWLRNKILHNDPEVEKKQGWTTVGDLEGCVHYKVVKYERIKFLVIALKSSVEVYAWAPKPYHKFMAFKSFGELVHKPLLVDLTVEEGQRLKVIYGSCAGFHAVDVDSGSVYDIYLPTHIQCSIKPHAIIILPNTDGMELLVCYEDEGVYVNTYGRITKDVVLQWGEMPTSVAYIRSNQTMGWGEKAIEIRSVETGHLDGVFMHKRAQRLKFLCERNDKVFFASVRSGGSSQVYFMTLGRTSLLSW
# ASSAY_NOTES: Inhibition of human N-terminal GST-tagged HGK catalytic domain (1 to 328 residues) expressed in baculovirus expression system using fluorescence labelled moesin-derived peptide substrate by electrophoretic mobility shift assay
QUANTITY_NAME: pIC50
Scale explanation: pIC50 corresponds to minus log10 of a concentration expressed in moles per litre.

Look up and report measured pIC50 for this entry: `O=C(Nc1ccc(CN2CCN(c3ccccc3)CC2)cc1)c1n[nH]c2ccccc12`
6.39

----------
# ASSAY_TARGET: CYP2C19 (Homo sapiens, UniProt P33261)
# Sequence (P33261 whole entry): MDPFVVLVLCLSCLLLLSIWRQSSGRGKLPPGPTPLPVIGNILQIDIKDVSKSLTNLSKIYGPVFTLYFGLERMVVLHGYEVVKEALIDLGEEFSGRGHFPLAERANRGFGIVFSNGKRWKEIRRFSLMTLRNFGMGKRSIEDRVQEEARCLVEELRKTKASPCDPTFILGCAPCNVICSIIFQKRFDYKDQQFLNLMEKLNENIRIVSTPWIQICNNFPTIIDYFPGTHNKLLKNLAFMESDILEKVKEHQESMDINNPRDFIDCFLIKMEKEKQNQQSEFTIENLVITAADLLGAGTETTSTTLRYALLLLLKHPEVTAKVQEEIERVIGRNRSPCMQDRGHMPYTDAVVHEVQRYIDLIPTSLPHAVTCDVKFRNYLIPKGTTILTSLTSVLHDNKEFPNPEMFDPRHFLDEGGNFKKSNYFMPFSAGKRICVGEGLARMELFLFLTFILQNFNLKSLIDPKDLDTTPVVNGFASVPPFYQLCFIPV
# ASSAY_NOTES: Inhibition of human CYP2C19 at 10 uM relative to control
# Type: ADME
QUANTITY_NAME: inhibition at 10 µM (%)
Report only the number, with the unit % understood.

Look up and report measured inhibition at 10 µM for this entry: `O=C(Nc1ccc(CN2CCN(c3ccccc3)CC2)cc1)c1n[nH]c2ccccc12`
57

----------
# ASSAY_TARGET: CYP2C9 (Homo sapiens, UniProt P11712)
# Sequence (P11712 whole entry): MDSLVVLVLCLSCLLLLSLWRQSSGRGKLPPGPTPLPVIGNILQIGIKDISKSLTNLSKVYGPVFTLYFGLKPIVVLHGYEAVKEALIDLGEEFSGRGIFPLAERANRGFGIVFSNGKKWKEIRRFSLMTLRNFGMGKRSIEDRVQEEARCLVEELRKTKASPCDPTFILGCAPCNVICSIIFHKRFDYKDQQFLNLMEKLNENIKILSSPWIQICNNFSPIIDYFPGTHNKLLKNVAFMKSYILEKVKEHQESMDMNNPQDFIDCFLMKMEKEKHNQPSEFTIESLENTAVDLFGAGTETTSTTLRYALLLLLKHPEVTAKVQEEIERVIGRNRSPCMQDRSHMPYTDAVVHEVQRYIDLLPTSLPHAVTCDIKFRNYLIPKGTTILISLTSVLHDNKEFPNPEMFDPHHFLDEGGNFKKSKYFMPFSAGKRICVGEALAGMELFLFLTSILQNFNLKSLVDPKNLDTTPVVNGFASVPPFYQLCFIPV
# ASSAY_NOTES: Inhibition of human CYP2C9 at 10 uM relative to control
# Format: ADME
QUANTITY_NAME: inhibition at 10 µM (%)
Report only the number, with the unit % understood.

Look up and report measured inhibition at 10 µM for this entry: `O=C(Nc1ccc(CN2CCN(c3ccccc3)CC2)cc1)c1n[nH]c2ccccc12`
36

----------
# ASSAY_TARGET: Receptor-type tyrosine-protein kinase FLT3 (Homo sapiens)
# Sequence (P36888 whole entry): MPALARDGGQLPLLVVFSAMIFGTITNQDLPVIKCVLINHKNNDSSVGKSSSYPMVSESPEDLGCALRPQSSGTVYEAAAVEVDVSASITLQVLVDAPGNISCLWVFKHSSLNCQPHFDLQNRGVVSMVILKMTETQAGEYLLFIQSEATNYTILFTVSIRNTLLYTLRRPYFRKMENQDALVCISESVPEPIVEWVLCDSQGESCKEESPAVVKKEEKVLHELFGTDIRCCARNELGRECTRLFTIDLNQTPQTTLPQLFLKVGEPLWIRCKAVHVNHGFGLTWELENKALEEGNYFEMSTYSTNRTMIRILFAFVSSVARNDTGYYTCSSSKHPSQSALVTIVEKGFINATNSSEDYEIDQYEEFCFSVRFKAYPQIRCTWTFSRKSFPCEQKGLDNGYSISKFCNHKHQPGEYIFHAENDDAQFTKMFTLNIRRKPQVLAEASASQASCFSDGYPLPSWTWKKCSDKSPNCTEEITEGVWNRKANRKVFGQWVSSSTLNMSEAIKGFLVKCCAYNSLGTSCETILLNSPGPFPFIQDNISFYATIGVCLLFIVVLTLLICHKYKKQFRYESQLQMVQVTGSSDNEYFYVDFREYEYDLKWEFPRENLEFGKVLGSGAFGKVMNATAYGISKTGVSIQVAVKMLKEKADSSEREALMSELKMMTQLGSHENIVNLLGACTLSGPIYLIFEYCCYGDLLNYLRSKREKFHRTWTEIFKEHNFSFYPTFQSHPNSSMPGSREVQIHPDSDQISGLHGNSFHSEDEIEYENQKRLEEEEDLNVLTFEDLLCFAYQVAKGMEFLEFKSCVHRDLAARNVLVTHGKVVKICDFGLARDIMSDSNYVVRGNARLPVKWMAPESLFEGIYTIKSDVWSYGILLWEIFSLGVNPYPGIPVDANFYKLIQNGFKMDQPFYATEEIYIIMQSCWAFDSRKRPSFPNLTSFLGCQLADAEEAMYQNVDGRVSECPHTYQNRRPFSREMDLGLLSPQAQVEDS
# ASSAY_NOTES: Inhibition of human N-terminal GST-tagged FLT3 cytoplasmic domain (564 to 993 residues) expressed in baculovirus expression system using fluorescence labelled srctide as substrate by mobility shift assay in presence of ATP
QUANTITY_NAME: pIC50
Scale explanation: pIC50 corresponds to minus log10 of a concentration expressed in moles per litre.

Look up and report measured pIC50 for this entry: `O=C(Nc1ccc(CN2CCN(c3ccccc3)CC2)cc1)c1n[nH]c2ccccc12`
8.05

Look up and report measured pIC50 for this entry: `O=C(Nc1ccc(C(=O)N2CCN(c3ccccc3)CC2)cc1)c1n[nH]c2ccccc12`
7.64

Look up and report measured pIC50 for this entry: `O=C(Nc1ccccc1)c1n[nH]c2ccccc12`
6.46

----------
# ASSAY_TARGET: CYP1A2 (Homo sapiens, UniProt P05177)
# Sequence (P05177 whole entry): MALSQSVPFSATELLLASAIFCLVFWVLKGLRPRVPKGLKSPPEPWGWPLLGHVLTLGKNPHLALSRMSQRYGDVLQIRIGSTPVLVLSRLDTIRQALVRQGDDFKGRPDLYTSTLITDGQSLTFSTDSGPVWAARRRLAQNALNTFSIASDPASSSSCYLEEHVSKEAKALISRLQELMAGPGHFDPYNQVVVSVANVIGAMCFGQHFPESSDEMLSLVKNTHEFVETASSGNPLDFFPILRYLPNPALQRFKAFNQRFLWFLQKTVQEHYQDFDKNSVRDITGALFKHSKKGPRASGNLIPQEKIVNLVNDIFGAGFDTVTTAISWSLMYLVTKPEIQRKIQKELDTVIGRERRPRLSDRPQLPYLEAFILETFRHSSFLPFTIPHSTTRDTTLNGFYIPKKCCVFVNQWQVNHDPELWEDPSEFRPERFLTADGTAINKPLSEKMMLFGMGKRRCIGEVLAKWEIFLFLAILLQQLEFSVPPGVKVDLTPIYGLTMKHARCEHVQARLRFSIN
# ASSAY_NOTES: Inhibition of human recombinant CYP1A2 using CEC as substrate at 10 uM after 30 mins by fluorimetry relative to control
# Assay type: ADME
# APPLIED_CONDITIONS: recombinant CYP1A2, probe CEC
QUANTITY_NAME: inhibition at 0.5 h, 10 µM (%)
Report only the number, with the unit % understood.

Look up and report measured inhibition at 0.5 h, 10 µM for this entry: `O=C(Nc1ccc(CN2CCN(c3ccccc3)CC2)cc1)c1n[nH]c2ccccc12`
36

----------
# ASSAY_TARGET: CYP2D6 (Homo sapiens, UniProt P10635)
# Sequence (P10635 whole entry): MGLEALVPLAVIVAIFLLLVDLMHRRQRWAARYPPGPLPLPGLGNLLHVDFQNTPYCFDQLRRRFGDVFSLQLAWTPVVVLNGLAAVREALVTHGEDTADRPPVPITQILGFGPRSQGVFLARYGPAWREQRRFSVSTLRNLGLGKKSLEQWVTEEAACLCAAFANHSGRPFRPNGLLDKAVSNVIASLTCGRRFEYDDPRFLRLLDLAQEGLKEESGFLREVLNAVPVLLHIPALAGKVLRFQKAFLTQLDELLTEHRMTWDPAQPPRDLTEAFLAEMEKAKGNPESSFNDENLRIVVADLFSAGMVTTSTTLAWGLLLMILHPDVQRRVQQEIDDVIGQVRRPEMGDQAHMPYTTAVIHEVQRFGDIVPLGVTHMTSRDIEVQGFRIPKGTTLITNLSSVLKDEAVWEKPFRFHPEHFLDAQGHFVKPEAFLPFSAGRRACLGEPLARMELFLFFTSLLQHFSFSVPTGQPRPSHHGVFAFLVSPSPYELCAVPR
# ASSAY_NOTES: Inhibition of human CYP2D6 at 10 uM relative to control
# Format: ADME
QUANTITY_NAME: inhibition at 10 µM

Look up and report measured inhibition at 10 µM for this entry: `O=C(Nc1ccc(CN2CCN(c3ccccc3)CC2)cc1)c1n[nH]c2ccccc12`
62%
